Could you please report measured IC50 for the items listed next?
Molecular target: NR1/NR2B (Homo sapiens (Human))
Sequence (Q13224 27-1484, other chains not shown): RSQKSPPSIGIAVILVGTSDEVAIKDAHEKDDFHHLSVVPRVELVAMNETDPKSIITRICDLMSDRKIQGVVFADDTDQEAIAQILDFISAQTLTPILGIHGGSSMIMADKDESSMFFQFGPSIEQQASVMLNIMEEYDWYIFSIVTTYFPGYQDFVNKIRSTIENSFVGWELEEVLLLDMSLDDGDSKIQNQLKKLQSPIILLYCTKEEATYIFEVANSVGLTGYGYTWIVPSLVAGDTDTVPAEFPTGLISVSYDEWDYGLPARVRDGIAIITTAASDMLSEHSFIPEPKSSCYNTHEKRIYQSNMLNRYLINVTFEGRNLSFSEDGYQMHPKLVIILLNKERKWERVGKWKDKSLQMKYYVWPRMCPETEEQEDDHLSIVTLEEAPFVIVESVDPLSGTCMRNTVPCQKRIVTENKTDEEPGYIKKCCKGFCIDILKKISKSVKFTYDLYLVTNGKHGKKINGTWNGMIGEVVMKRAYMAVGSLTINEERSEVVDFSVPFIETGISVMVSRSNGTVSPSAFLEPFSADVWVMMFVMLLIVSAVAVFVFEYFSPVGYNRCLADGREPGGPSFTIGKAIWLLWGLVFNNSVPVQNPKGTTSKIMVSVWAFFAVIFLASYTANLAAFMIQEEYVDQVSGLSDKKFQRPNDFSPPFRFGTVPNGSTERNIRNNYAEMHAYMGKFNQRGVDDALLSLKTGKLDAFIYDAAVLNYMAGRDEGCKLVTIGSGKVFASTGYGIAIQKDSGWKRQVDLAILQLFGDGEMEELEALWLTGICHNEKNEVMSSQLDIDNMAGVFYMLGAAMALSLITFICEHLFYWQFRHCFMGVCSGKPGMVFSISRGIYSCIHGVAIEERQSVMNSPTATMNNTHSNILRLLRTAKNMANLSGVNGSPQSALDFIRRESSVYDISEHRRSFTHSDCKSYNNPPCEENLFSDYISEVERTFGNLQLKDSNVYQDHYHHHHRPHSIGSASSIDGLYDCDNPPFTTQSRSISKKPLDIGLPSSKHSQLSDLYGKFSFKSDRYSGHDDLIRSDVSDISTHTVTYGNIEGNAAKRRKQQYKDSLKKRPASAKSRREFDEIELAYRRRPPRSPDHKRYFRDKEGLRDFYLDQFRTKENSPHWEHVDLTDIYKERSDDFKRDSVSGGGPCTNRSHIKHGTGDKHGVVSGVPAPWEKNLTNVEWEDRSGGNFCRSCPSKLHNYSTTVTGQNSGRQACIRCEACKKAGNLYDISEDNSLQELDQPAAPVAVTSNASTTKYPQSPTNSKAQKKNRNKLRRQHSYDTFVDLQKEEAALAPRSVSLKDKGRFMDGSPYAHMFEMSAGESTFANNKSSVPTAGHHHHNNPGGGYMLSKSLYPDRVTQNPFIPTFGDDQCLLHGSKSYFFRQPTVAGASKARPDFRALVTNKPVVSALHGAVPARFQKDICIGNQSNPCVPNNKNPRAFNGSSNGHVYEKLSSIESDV
Experiment: Cell assay: FDSS Ca2+ influx inhibition in HEK293 cells expressing NR1/NR2B;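 also: Fluo-8 Ca2+ signal read on Hamamatsu FDSS 6000 after glutamate, glycine and Ca2+ challenge following 10 min compound preincubation, end/baseline fluorescence ratio compared with MK801 control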
Settings: read-out: NR2B NAM IC50; HEK293 cells expressing NR1/NR2B, Ca2+ influx
Give bare numbers, in µM.

Solved cases below.
# Compound, Tested System, Units Text, IC50
measured = [
    ("Oc1ccc([C@H](O)CN2C[C@@H]3C[C@@](O)(Cc4ccccc4)C[C@@H]3C2)cc1 [Example 137]", "NR1/NR2B (Homo sapiens (Human))", "µM", 0.0204),
    ("COc1ccc(NC(=O)N2C[C@@H]3C[C@@](O)(c4ccc(C#N)cc4)C[C@@H]3C2)cc1 [Example 2]", "NR1/NR2B (Homo sapiens (Human))", "µM", 10),
]

// switching to the query compound
QUERY: Name the reported IC50 value associated with the compound COc1ccc(C[C@]2(O)C[C@H]3CN(CC(=O)c4ccc(O)cn4)C[C@H]3C2)cc1 [Example 192]
RESULT: 7.61
